Test system: F380Y/beta2Delta
Test: BK channel mutant inhibitors and activators – cell-based, U2OS BacMam, thallium flux, beta subunits, selectivity assay, profiling panel (AID 1259406);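 further: initial slope of Thallos dye fluorescence rise after thallium is added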
Conditions: U2OS BacMam BK variants, at 30 µM
Using log fold change Tl+ flux as the sorting value, the categories are low bracket = under -0.0008, middle bracket = from -0.0008 up to 0.06, high bracket = 0.06 and over

NC(=O)OCC(COC(N)=O)c1ccccc1 : middle bracket
Cc1cccc(C)c1NC(=O)C(C)N (stereo unspecified) : middle bracket

Band of O=C(NCCO[N+](=O)[O-])c1cccnc1 ?
low bracket

Band of O=C1CC2(CCCC2)CC(=O)N1CCCCN1CCN(c2ncccn2)CC1 ?
high bracket

Band of CN1CCC(=C2c3ccccc3C=Cc3ccccc32)CC1 ?
high bracket

Band of NCC1CCC(C(=O)Oc2ccc(CCC(=O)O)cc2)CC1 (stereo unspecified) ?
low bracket

Band of Cc1ccc(NC(=O)c2ccc(CN3CCN(C)CC3)cc2)cc1Nc1nccc(-c2cccnc2)n1 ?
high bracket

Band of CC(=O)Oc1ccccc1C(=O)Nc1ncc([N+](=O)[O-])s1 ?
low bracket

Band of COC1=C(OC)C(=O)C(CCCCCCCCCCO)=C(C)C1=O ?
low bracket

Band of CC1(C)O[C@@H]2C[C@H]3[C@@H]4C[C@H](F)C5=CC(=O)C=C[C@]5(C)[C@@]4(F)[C@@H](O)C[C@]3(C)[C@]2(C(=O)CO)O1 ?
high bracket

Band of Cc1ccnc2c1NC(=O)c1cccnc1N2C1CC1 ?
middle bracket

Band of Cc1cccc(C)c1OCC(C)N (stereo unspecified) ?
middle bracket

Band of CCOc1cc(CC(=O)N[C@@H](CC(C)C)c2ccccc2N2CCCCC2)ccc1C(=O)O ?
high bracket

Band of CC(C)(O)c1ccccc1CC[C@@H](SCC1(CC(=O)O)CC1)c1cccc(/C=C/c2ccc3ccc(Cl)cc3n2)c1 ?
high bracket

Band of Cc1nc2ccc(CN(C)c3ccc(C(=O)N[C@@H](CCC(=O)O)C(=O)O)s3)cc2c(=O)[nH]1 ?
low bracket

Band of CC(C)(C)C(O)/C=C/c1ccc2c(c1)OCO2 (stereo unspecified) ?
low bracket

Band of O=C1c2cccc3c2[C@H](CCC3)CN1[C@@H]1CN2CCC1CC2 ?
middle bracket

Band of N#Cc1ccc(C(c2ccc(C#N)cc2)n2cncn2)cc1 ?
middle bracket

Band of CC(=O)NS(=O)(=O)c1ccc(N)cc1 ?
middle bracket

Band of O=C1Nc2ccc(Cl)cc2[C@@](C#CC2CC2)(C(F)(F)F)O1 ?
middle bracket

Reference source for all entries: PubChem BioAssay
